Target: Mu-type opioid receptor (Homo sapiens, UniProt P35372); also: assay procedure not described here
Sequence (P35372 whole entry): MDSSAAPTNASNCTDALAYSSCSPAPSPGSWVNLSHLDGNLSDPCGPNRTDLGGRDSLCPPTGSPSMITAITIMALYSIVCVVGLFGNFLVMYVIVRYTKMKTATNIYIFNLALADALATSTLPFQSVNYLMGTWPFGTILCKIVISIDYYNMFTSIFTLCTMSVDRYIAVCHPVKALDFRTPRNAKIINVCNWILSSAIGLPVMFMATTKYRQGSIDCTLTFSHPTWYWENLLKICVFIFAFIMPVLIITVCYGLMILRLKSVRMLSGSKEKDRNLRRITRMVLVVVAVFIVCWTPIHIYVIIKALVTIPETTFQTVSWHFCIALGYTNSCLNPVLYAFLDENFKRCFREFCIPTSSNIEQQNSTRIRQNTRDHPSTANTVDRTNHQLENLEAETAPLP
Consider the following molecules; for each one, report its AC50.

// below: answered molecules
molecule	experimental-system	AC50
O=C(Nc1nc(-c2cc(Cl)cs2)c(N2CCN(C3CCCCC3)CC2)s1)c1cnc(N2CCC(C(=O)O)CC2)c(Cl)c1 [AVATROMBOPAG]	Mu-type opioid receptor (Homo sapiens, UniProt P35372)	> 30 µM
CC[C@H]1OC(=O)[C@H](C)[C@@H](O[C@H]2C[C@@](C)(OC)[C@@H](O)[C@H](C)O2)[C@H](C)[C@@H](O[C@@H]2O[C@H](C)C[C@H](N(C)C)[C@H]2O)[C@](C)(OC)C[C@@H](C)C(=O)[C@H](C)[C@@H](O)[C@]1(C)O [CLARITHROMYCIN]	Mu-type opioid receptor (Homo sapiens, UniProt P35372)	> 30 µM
CC[N+](C)(CC)CCOC(=O)C1c2ccccc2Oc2ccccc21 [METHANTHELINE]	Mu-type opioid receptor (Homo sapiens, UniProt P35372)	> 30 µM
COCCCOc1ccnc(C[S+]([O-])c2nc3ccccc3[nH]2)c1C (stereo not drawn) [RABEPRAZOLE]	Mu-type opioid receptor (Homo sapiens, UniProt P35372)	7.93 µM

Hi! Can you tell me AC50 for each of these molecules?
1. CCCCCCCCCCCCCCCC(=O)OC/C=C(C)/C=C/C=C(C)/C=C/C1=C(C)CCCC1(C)C [VITAMIN A PALMITATE]
2. CCOc1ccc2ccccc2c1C(=O)N[C@@H]1C(=O)N2[C@@H]1SC(C)(C)[C@@H]2C(=O)O [NAFCILLIN]

["> 30 µM", "> 30 µM"]

Hi! Can you tell me AC50 for each of these molecules?
1. CN1CCN(CCCN2c3ccccc3Sc3ccc(S(=O)(=O)N(C)C)cc32)CC1 [THIOPROPERAZINE]
2. O=P(O)(O)C(Cl)(Cl)P(=O)(O)O [CLODRONIC ACID]

1: 11.6 µM; 2: > 30 µM
